Below, each entry is listed with its recorded viability inhibition.
# System: HCT116
# Experimental Protocol: viability inhibition vs untreated; higher = more cytotoxic
# Measurement Context: genotype: MTA1-KO; 16 nM; 72 h
Structures can show the parent of a compound that is named as a salt.

molecule=COc1ccc(Cc2cnc(N)nc2N)cc1OC observed=9.72%
molecule="NCCCCN=C(N)N [Agmatine sulfate salt]" observed=-2.78%
molecule="Nc1ncnc2c1ncn2[C@@H]1O[C@H](COP(=O)(O)O)[C@@H](O)[C@H]1O [Adenosine 5'-monophosphate]" observed=1.56%
molecule=CC(C)(O)CNc1nc(Nc2ccnc(C(F)(F)F)c2)nc(-c2cccc(C(F)(F)F)n2)n1 observed=-26%

Alright, here's another molecule for you.
Look at this molecule and give its reported viability inhibition. NC(N)=NC(N)=NCCc1ccccc1 [Phenformin hydrochloride]
-11.4%

---

# Test system: HCT116
# Experimental Protocol: viability inhibition vs untreated; higher = more cytotoxic
# Measurement Context: genotype: MTA1-KO; 16 nM; 72 h
Counter-ions that a name gives are not always drawn.
Here, each record is paired with measured viability inhibition data.
Entry rule: numbers only, all in %.

Answered examples (5):
compound=O=C(O)c1nn(Cc2ccc(Cl)cc2Cl)c2ccccc12 scale_unit=% observed=-2.77
compound=Nc1nc(NC2CC2)cc(-c2cccc(Cl)c2Cl)n1 scale_unit=% observed=-0.076
compound=CCC(=O)N1CCN(c2ccc(-n3c(=O)ccc4cnc5ccc(-c6cnc7ccccc7c6)cc5c43)cc2C(F)(F)F)CC1 scale_unit=% observed=2.4
compound=C[C@@H](C(=O)Nc1ccc(Cl)cc1)[C@H]1CC[C@@H](c2ccnc3ccc(F)cc32)CC1 scale_unit=% observed=1.54
compound=Cc1ccc(S(=O)(=O)Cc2nc(-c3ccc(C(=O)NCc4cccnc4)cc3)oc2C)cc1 scale_unit=% observed=5.08

Can you look up the measured viability inhibition of COc1ccccc1OCC(O)COC(N)=O (configuration not stated) for me?
-9.86

Looking for the measured viability inhibition of COc1ccc2[nH]cc(CCNC(C)=O)c2c1 , can you help?
11.6

Can you look up the measured viability inhibition of NCCCC(N)(C(=O)O)C(F)F (configuration not stated) [Eflornithine hydrochloride Monohydrate] for me?
-16.1

---

Listing of entries alongside the reported viability inhibition.
# Test system: HCT116
# Experimental Protocol: viability inhibition vs untreated; higher = more cytotoxic
# Measurement Context: genotype: MTA1-KO; 16 nM; 72 h
Structures can show the parent of a compound that is named as a salt.
Value expressed in %; do not type the unit.

Example results:
molecule=Cc1cc(-c2nc(-c3ccc(OC(F)(F)F)cc3)no2)nn1Cc1ccnc(N2CCN(C3CC3)CC2)c1 measurement_kind="viability inhibition" observed=21
molecule=C[C@]12CC[C@H](O)C[C@H]1CC[C@@H]1[C@@H]2CC[C@]2(C)[C@@H](c3ccc(=O)oc3)CC[C@]12O measurement_kind="viability inhibition" observed=15.4
molecule=CC(C)(C)c1ccc(S(=O)(=O)NCc2ccc(C(=O)Nc3cccnc3)cc2)cc1 measurement_kind="viability inhibition" observed=0.724
molecule=NC(N)=O measurement_kind="viability inhibition" observed=-19

Endpoint output: viability inhibition of CC1(C)CC[C@]2(C(=O)O[C@@H]3O[C@H](CO)[C@@H](O)[C@H](O)[C@H]3O)CC[C@]3(C)C(=CC[C@@H]4[C@@]5(C)CC[C@H](O[C@@H]6O[C@H](C(=O)O)[C@@H](O)[C@H](O)[C@H]6O)C(C)(C)[C@@H]5CC[C@]43C)[C@@H]2C1 . Value?
-3.21

Quick check: viability inhibition of CN(C)CCCCC(=O)Nc1ccc(NC(=S)NC(=O)c2ccc(C(C)(C)C)cc2)cc1 ?
-14.1

Could you tell me which viability inhibition is on file for Cc1ccc2nc(N)[nH]c(=O)c2c1Sc1ccncc1 ?
8.71

Need viability inhibition, item O=C(O)c1cccnc1Nc1cccc(C(F)(F)F)c1
-15.2

I am curious: what viability inhibition value has been reported for NN=C(N)N [Aminoguanidine hydrochloride] ?
-22

Which viability inhibition value belongs to COc1cccc(-c2ccc(NC(=O)C3=C(C(=O)O)CCC3)c(F)c2)c1 ?
16.3

Recorded viability inhibition of C=C(C)[C@H]1Cc2c(ccc3c2O[C@@H]2COc4cc(OC)c(OC)cc4[C@@H]2C3=O)O1 , please.
16.6

Record request: viability inhibition value, item Nc1nc(Cl)nc2c1ncn2[C@@H]1O[C@H](CO)[C@@H](O)[C@@H]1F
-2.4

Reported viability inhibition for c1ccc2c(CCNc3ccc(Nc4ccncc4)cc3)c[nH]c2c1 : what is it?
10.9

I'd like to know its viability inhibition. The molecule in question is Oc1cccc(-c2nc(N3CCOCC3)c3oc4ncccc4c3n2)c1
7.63

Field request: viability inhibition | item: NS(=O)(=O)Cc1noc2ccccc12 [Zonisamide]
2.91

Entry under review: CO[C@H]1C[C@@H]2CC[C@@H](C)[C@@](O)(O2)C(=O)C(=O)N2CCCC[C@H]2C(=O)O[C@H]([C@H](C)C[C@@H]2CC[C@@H](OC(=O)C(C)(CO)CO)[C@H](OC)C2)CC(=O)[C@H](C)/C=C(\C)[C@@H](O)[C@@H](OC)C(=O)[C@H](C)C[C@H](C)/C=C/C=C/C=C/1C . Reported viability inhibition?
56.3

Fill in the blank: the reported viability inhibition of N[C@@H](CCC(=O)N[C@@H](CS)C(=O)NCC(=O)O)C(=O)O is ____.
-21.2

Entry under review: NS(=O)(=O)C#Cc1ccccc1 . Reported viability inhibition?
-6.33
